# System: MS2 coat protein
# assay name: apparent KD of MS2 coat protein; designed switch direction (-1 OFF switch, 1 ON switch): -1; higher = weaker reporter binding
# condition summary: input ligand: microRNA oligo, concentration not stated
quantity kind: apparent KD of MS2 coat protein
Phrase the answer as number then unit, nothing more needed.

CUAAAUCAUGUAGGAUAUGCGUGGCGAAGCUAUGCAGAAGGACAUGAGGAUCACCCAUGUUCUUCCGUCUGCGUACAGACGGAA [JL ENG1 1.18] (Eterna round: R96, puzzle: Exclusion NG 1) ... 28.7 nM

Continue with the sequence presented below.
Ask: For the record UGAGUGGUGCGAGGAUAUACAUGAGGAUCACCCAUGUAAACGUGUGAGGCUUUGCCUCACACGAUGUAGAAGGCGCACUACUCU [Mat - Exclusion NG 2 - Mod of JL - D13] (Eterna round: R96, puzzle: Exclusion NG 2) , what value of apparent KD of MS2 coat protein is listed for MS2 coat protein?
Reply: 9.36 nM

====

# System: MS2 coat protein
# assay name: apparent KD of MS2 coat protein; designed switch direction (-1 OFF switch, 1 ON switch): 1; higher = weaker reporter binding
# condition summary: Eterna round: R95; input ligand: FMN 200 uM
quantity kind: apparent KD of MS2 coat protein (nM)
Lab book: enter the figure in nM, no units written.

AGGAAACAUGAGGAUCACCCAUGUAUCGAGCCGCGAGGAUAUGGGUAUCAAAGGCGAGGAUCAGAAGGUGCAGGCG [Eseddierve] (puzzle: Same State 1) ... 235
AACAAUCUAUCUGAGGAUAUCAUGAAAUAAACAUGAGGAUCACCCAUGUGCAGGAAAACUUCAUAUGAGAAGGCAGAUAGAUUGA [salish99_ss2_r3_045] (puzzle: Same State 2) ... 17.5

Continue with the sequence presented below.
Ask: Reported apparent KD of MS2 coat protein for GGUCCAGCCUGAGCUGGACAAAAGCAUGUACAUGAGGAUCACCCAUGUUCAUGUACAAGCUUUUUGCUCGUCUUAGC [salish99_208a_r3_071] (puzzle: Sensor for hsa-mir-208a) : what is it?
Reply: 534

====

# Test system: K4 kissing-loop RNA reporter
# assay name: apparent KD of K4 kissing-loop reporter; higher = weaker reporter binding
# condition summary: Eterna round: R107; input ligand: arginine 13.2 mM
quantity kind: apparent KD of K4 kissing-loop reporter (nM)
Lab book: enter the figure in nM, no units written.

A selection of reference data follows.
GGCGGCUGCGCGCAAGCGCAGCCGGCCGAUACCAGCGCGACGGCGCGCCCUUGGCAGCGGCGCCGAGUGAUGUUCGGCCUGCCGG [#2 Same State - Theophylline A Attempt #19 (HarryS)] ... 380
GUGCAGUGAUGUUGCACGAGGAAAGACGAUACCAGCCGUAAAUAAGGCCCUUGGCAGCGUGGACUAGCAUAAAGUAUGCUAGCCU [Isenaonle] ... 104
CGCAAGCAGCCAGUGAUGUUGGCCGCCUUGCGAGGACCGGUACGGCCGCCACUCGAAGGCGGCUACUGAUAAACCGUCUAACGGA [KL-XTryp-A9] ... 96.3
AGUAAUGAGUGAUGUUCAAAUAGUAAGGAUACCAGUAAUUCAAAAUGCCCUUGGCAGCUUAACGCUACCAAUAGAUAAAUAAUGG [Theophilline A V2 (+2A)] ... 166
UUUCGUAGAAGUGAUACCAGACUUGAAAGUGAUGUUUUCCAAUAAUUUAAAUUUUUAGCUGUCCCUUGGCAGCACAGUUUAUUUA [JR_Nu_ExcTheophyB_Sub026] ... 298

Ask: Reported apparent KD of K4 kissing-loop reporter for GCCAGGCAUCUGCAGAGUGAUGUUCAAAAGCGAGGACCGGUACGGCCGCCACUCGAAAGCAGAUGCCUGGGCGUACAAAGUACGC [idea] : what is it?
Reply: 262

====

# System: K4 kissing-loop RNA reporter
# assay name: apparent KD of K4 kissing-loop reporter; higher = weaker reporter binding
# condition summary: Eterna round: R107; input ligand: theophylline 20 uM
quantity kind: apparent KD of K4 kissing-loop reporter (µM)
Lab book: enter the figure in µM, no units written.

A selection of reference data follows.
CAUGGGCCAGUGAUGUUGGCGCGCACGGGACGAGGACCGGUACGGCCGCCACUCGCUUUUGCUCUUAUCGGGAUAAGAAAACCGA [Enveerorle] ... 0.309
GUCCCGAGUGAUGUUCGGGUCGUUUGGGAAGGAGCGCCCGGAAGGGCAGGUAGGUCGCCCGGACCGUGCAGGUAACUGUGCGGCC [#2 Same State - Arginine A Attempt #18 (HarryS)] ... 0.196
AAGGUAUCACCACAACAUCACUAAGGUGAUACCAGCAUCGAAAGAUGCCCUUGGCAGCACCAACUUGCAGUGAUGUUGCAAGUAA [(T)'-(H)'-(T1)-(T2)-(H1)-(H2)_Design9] ... 0.438
GUUACUUCAGAAGGAUAUUAGUAAACAACACGGUAGUGAUGUUACCGUUAUCAAGCCCGGCUUCACUAAGAAGGUCUCCACCGCG [theeternabot_sameState_KL_FMN_B_23] ... 0.07

Ask: Reported apparent KD of K4 kissing-loop reporter for GGUCCGGGCUCGGCCGCCACUCCCUCCUGCCGCAAGGUGGGAUACCGAGUGAUGUUCGGUUGGAGGAGGACCGGGAGCCCGGACC [#2 Exclusion - Tryptophan B Attempt #14 (HarryS)] : what is it?
Reply: 0.133

====

# System: MS2 coat protein
# assay name: apparent KD of MS2 coat protein; designed switch direction (-1 OFF switch, 1 ON switch): -1; higher = weaker reporter binding
# condition summary: input ligand: FMN 200 uM
quantity kind: apparent KD of MS2 coat protein (nM)
Lab book: enter the figure in nM, no units written.

ACUAGAUGAGGAUAUACACAUUUUAGUGUUCCUCUAGAUUAACAUGAGGAUCACCCAUGUAGAAGGCAUCAAUU [Exclusion 2 - 11] (Eterna round: R96, puzzle: Exclusion 2) ... 294

Ask: For the record GGUAGAGUGGCAGGAUAUCCGUCUGUUUCAGUCGGAGAAGGGCCACAGUCACUGGGUCCAAAUAUGGGUGACCAUGUAUCUACC [pwkr exNG1 F6.4] (Eterna round: R96, puzzle: Exclusion NG 1) , what value of apparent KD of MS2 coat protein is listed for MS2 coat protein?
Reply: 22

Ask: For the record GAAUAGAGAGGAUAUGCAAUGAAGGUAGUACGAUAUGUCUGACAUGAGGAUCACCCAUGUAGAAGGCUCAGAUC [EX2 #9] (Eterna round: R97, puzzle: Exclusion 2) , what value of apparent KD of MS2 coat protein is listed for MS2 coat protein?
Reply: 63.8

Ask: For the record AGCCUGCAAGUAAGGAUAUGAAGUUAAAAGAACGGUCAGAAGGUACUUGAGGAUCACCCAAGUACGGGAGCGUG [Teuscema] (Eterna round: R97, puzzle: Brourd's mod of Exclusion 4) , what value of apparent KD of MS2 coat protein is listed for MS2 coat protein?
Reply: 41

Ask: For the record CGUCAACAUGAGGAUCACCCAUGUUAGGAUAUGGCGGUCCAUGGUUGGGACUAGACCGCCAGAAGGAGCAUGCG [Eternabot (L1) Solution 54] (Eterna round: R97, puzzle: Exclusion 1) , what value of apparent KD of MS2 coat protein is listed for MS2 coat protein?
Reply: 71.9

====

# System: K4 kissing-loop RNA reporter;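 further: bound reporter read as fluorescence of individual clusters on recovered sequencing chips by microscopy, with normalized cluster intensities fitted with a binding model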
# assay name: apparent KD of K4 kissing-loop reporter; higher = weaker reporter binding
# condition summary: Eterna round: R107; input ligand: theophylline 20 uM
Label True for high-side apparent KD of K4 kissing-loop reporter (at or above 0.4 µM) and False for low-side apparent KD of K4 kissing-loop reporter (below it).

Solved cases below.
GCCAGGCAUCUGCAGAGUGAUGUUCAAAAGCGAGGACCGGUACGGCCGCCACUCGAAAGCAGAUGCCUGGGCGUACAAAGUACGC [idea] ... True
AGAAACUUGUAUGUCGGGUGUGCGCGCGAUACCAGCCAAAUGGAUGGCCCUUGGCAGCGCAGCGAGUGAUGUUCGCCCGCUUGAC [Exclusion Theophylline A GF 22] ... False
AGGUUUUGAUUAGGAUAUGCACUGAGGAGGAGAAUAUAGUGAUGUUAUAUAAGAGGAAGGAGUAGAGUAGAAGGGAUUGAGGUUU [SSFMNB.R] ... False
AAAUUUUAAAGUGAUACCAGACAUCUCUAUUACAUUAAUAUAGCUAAGUGAUGUUUAGCAGUCCCUUGGCAGCACAAUUUAAUUA [JR_SSTheophyB_Sub012] ... True
UUUUAGGUAUCUGAUACCAGAGAAAAUAUAUGUAGUGAUGUUAUAUACAAAAUAAUUAAGCUCCCUUGGCAGCAGUAUUAAUUUU [AstrosExc-TheB#3] ... True
GUACGCUCUCGAGUGAUGUUCGGUAAUCCUUAGGAUAUCGCUUUUGCGAGAAGGAAGGGAAUGAGGAAACUCGUUCUGAGUGUAC [FMN A 21] ... True

Ask: Reported apparent KD of K4 kissing-loop reporter at or above 0.4 µM? UUUCGUAGAAGUGAUACCAGACUUGAAAGUGAUGUUUUCCAAUAAUUUAAAUUUUUAGCUGUCCCUUGGCAGCACAGUUUAUUUA [JR_Nu_ExcTheophyB_Sub026]
Reply: False

Ask: Reported apparent KD of K4 kissing-loop reporter at or above 0.4 µM? UGAUAGGACAGAAGGAGCGGCAGUGAUGUUGCCAAAAGGGUAAGGUGUCAAAAGACACCCUGCCAGGUAGGUCGCUGUCCUAUCU
Reply: False

Ask: Reported apparent KD of K4 kissing-loop reporter at or above 0.4 µM? GCCGAAUCGUUGGGCUCAGUGAUGUUGAUCCGAGGACCGGUACGGCCGCCACUCGAAUGGCAGUGACCACACUGGUAACGUUAAA [theeternabot_exclusion_KL_Trp_A_43]
Reply: True

Ask: Reported apparent KD of K4 kissing-loop reporter at or above 0.4 µM? UUCUACGAGUGAUGUUCGUAGUGUAAUCGCUAGGAUAUCGUUUUUUCGAGAAGGAGCGUCGAAGUGAUACGAAAGUAUCGCUUCG [FMN A 13]
Reply: False

Ask: Reported apparent KD of K4 kissing-loop reporter at or above 0.4 µM? UGUACCGAUUCAGGAUAUGUCGUCGAAAGACGAAAUGGAGUGAUGUUCCUUAAACUGCGAAAGCAGACAGAAGGGAAUUGGUACU [FmnBS 29 U9+A77]
Reply: False

Ask: Reported apparent KD of K4 kissing-loop reporter at or above 0.4 µM? CGCAGUGAUGUUGCGAAUAUAAUCACGGAAGGAGCGCGUGAAAACGCAGGUAGGUCGCCGUGUGGUAUGAUGGAAACAUCGUACC [Arginine A K4 12]
Reply: False
